Numbers sourced from PubChem BioAssay.

assay-info: OD615 S. cerevisiae growth inhibition, permissive medium, pilot counter-assay, permissive growth control for S. cerevisiae lifespan shortening project (AID 705)
experimental-conditions: OD615, 24 h, at 10 µM, stronger effect = higher value
Consider the following molecules; for each one, report its growth inhibition.
The reply should be a number in %, with the unit left off.

**Query** Request the reported growth inhibition associated with CCOC(=O)N1CCC(NC(=O)CSCc2nc(-c3sccc3C)oc2C)CC1
**Result** -9.01

**Query** Request the reported growth inhibition associated with O=C(Nc1cccnc1)c1cc(-c2ccc(Br)cc2)on1
**Result** -9.68

**Query** Request the reported growth inhibition associated with C=CCn1c(SC(CCO)C(=O)NCc2ccco2)nc2sc3c(c2c1=O)CCC3 (centres undefined)
**Result** -8.84

**Query** Request the reported growth inhibition associated with COc1ccc(OCC(=O)OCCN2C(=O)c3ccccc3C2=O)cc1
**Result** 3.16

**Query** Request the reported growth inhibition associated with Cc1ccc(N2CCN(C(=O)c3ccccc3F)CC2)c(C)c1
**Result** -12.4

**Query** Request the reported growth inhibition associated with Cc1ccc(C2CC(c3cccc(C)c3)n3nc(N)nc3N2)cc1 (centres undefined)
**Result** -0.275

**Query** Request the reported growth inhibition associated with COc1ccc(C)cc1NC(=O)CN(c1ccccc1)S(C)(=O)=O
**Result** -7.61

**Query** Request the reported growth inhibition associated with CCC(=O)N=c1sc2cc(F)cc(F)c2n1C
**Result** -6.05

**Query** Request the reported growth inhibition associated with CC1CCCCN1CCNC(=O)c1cnn2ccccc12 (centres undefined)
**Result** -12.7

###

assay-info: RAM signaling pathway blockade in yeast – S. cerevisiae, Pdr1DBD-CYC8 efflux-inhibited sensitized strain, primary screen (AID 1298);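 note: 0% = DMSO untreated cells without growth and 100% = 10 µM 1-NA-PP1 full growth; higher means more yeast growth rescued from 5-FOA killing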
experimental-conditions: S. cerevisiae cbk1-as DSE1-URA3 strain, 5-FOA growth OD615, 2 d; at 50 µM; stronger effect = higher value
Consider the following compounds; for each one, report its RAM network inhibition.
The reply should be a number in %, with the unit left off.

**Query** Request the reported RAM network inhibition associated with C=C(C)Cn1c(CCNC(=O)CCC)nc2ccccc21
**Result** 2.19

**Query** Request the reported RAM network inhibition associated with COc1ccc(S(=O)(=O)Cc2ccc(C(=O)N3CCN(c4cccc(C)c4C)CC3)o2)cc1
**Result** 3.74

**Query** Request the reported RAM network inhibition associated with CCCCC1CCC(c2nc(-c3cccnc3)no2)CC1 (centres undefined)
**Result** -1.92

**Query** Request the reported RAM network inhibition associated with O=C(Nc1ccccc1C(=O)NC(Cc1c[nH]c2ccccc12)C(=O)O)c1ccco1 (centres undefined)
**Result** 2.94

**Query** Request the reported RAM network inhibition associated with CCOCCn1c(-c2ccc(OC)cc2)nc2ccccc21
**Result** 5.07

**Query** Request the reported RAM network inhibition associated with CCOc1ccc(N(CC(=O)O)S(=O)(=O)c2ccc(OC)c(OC)c2)cc1
**Result** 1.05

**Query** Request the reported RAM network inhibition associated with CC(C)n1c(CCCO)nc2ccccc21
**Result** 0.19

**Query** Request the reported RAM network inhibition associated with C=CCSC1=C(C#N)C(c2ccc(OCC)cc2)CC(=O)N1 (centres undefined)
**Result** 4.8

**Query** Request the reported RAM network inhibition associated with Cc1cccn2cc(CCNC(=O)c3ccc(Br)o3)nc12
**Result** 1.91

**Query** Request the reported RAM network inhibition associated with Cc1cccc(Nc2ncnc3nc[nH]c23)c1C
**Result** 4.52

**Query** Request the reported RAM network inhibition associated with CCCn1cc(S(=O)(=O)CC(=O)N2CCc3ccccc32)c2ccccc21
**Result** 5.15

**Query** Request the reported RAM network inhibition associated with Cc1ccc(NC(=O)c2cc(NC(=O)C3CC=CCC3C(=O)O)ccc2N2CCOCC2)cc1 (centres undefined)
**Result** 2.82

**Query** Request the reported RAM network inhibition associated with CCCOC(=O)c1cccc(NC(=O)C(C)(C)C)c1
**Result** 1.87

**Query** Request the reported RAM network inhibition associated with COc1ccc(Nc2nc(C)cc(C)c2C#N)cc1OC
**Result** 1.79

**Query** Request the reported RAM network inhibition associated with CCN(CC)CCCNC(=O)c1cc(-c2ccc(O)cc2)on1
**Result** 1.77

**Query** Request the reported RAM network inhibition associated with CN1CCN(Cc2nc3c(c(=O)n(C)c(=O)n3C)n2CCc2ccccc2)CC1
**Result** 2.53

**Query** Request the reported RAM network inhibition associated with Cc1ccc(N(C(=O)CC2NC(=O)NC2=O)C2(C(=O)NC3CCCC3)CCCCC2)cc1 (centres undefined)
**Result** 3.14

**Query** Request the reported RAM network inhibition associated with CCOC(=O)C1=C(N)OC2=C(C(=O)CCC2)C1c1ccccc1OCC (centres undefined)
**Result** 8.68

**Query** Request the reported RAM network inhibition associated with Cc1ccc(-c2nc(=S)c3c(n2Cc2ccco2)CC(C)(C)OC3)cc1
**Result** 3.44

**Query** Request the reported RAM network inhibition associated with CCOC(=O)c1ccc(NC(=O)CSc2nc3c(c(=O)n2-c2ccccc2OC)SCC3)cc1
**Result** 3.9

**Query** Request the reported RAM network inhibition associated with NC(=O)COc1ccc(=O)n(-c2ccccc2)n1
**Result** 1.14

**Query** Request the reported RAM network inhibition associated with COC(=O)CN(c1ccccc1)S(=O)(=O)c1ccccc1
**Result** 0.88

**Query** Request the reported RAM network inhibition associated with CCOC(=O)N1CCN(C(=O)c2ccc3c(c2)N(CC)CCS3)CC1
**Result** -1.13

**Query** Request the reported RAM network inhibition associated with CCOc1ccc(C2CC(c3ccccc3C)n3ncnc3N2)cc1 (centres undefined)
**Result** -1.78

###

assay-info: RAM signaling pathway blockade in yeast – S. cerevisiae, Pdr1DBD-CYC8 efflux-inhibited sensitized strain, primary screen (AID 1298);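 note: 0% = DMSO untreated cells without growth and 100% = 10 µM 1-NA-PP1 full growth; higher means more yeast growth rescued from 5-FOA killing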
experimental-conditions: S. cerevisiae cbk1-as DSE1-URA3 strain, 5-FOA growth OD615, 2 d; at 50 µM; stronger effect = higher value
attribute-measured: RAM network inhibition (%)
The reply should be a number in %, with the unit left off.

**Query** Request the reported RAM network inhibition associated with O=C1C2CCCN2C(c2ccc(Br)cc2)N1c1ccc(F)cc1 (stereo not drawn)
**Result** 9.1

**Query** Request the reported RAM network inhibition associated with O=C(O)C1C2C=CC3(CN(Cc4ccco4)C(=O)C13)O2 (stereo not drawn)
**Result** -0.52

**Query** Request the reported RAM network inhibition associated with Cc1cc(C)n(CC(O)Cn2c3ccccc3c3ccccc32)c(=O)n1 (stereo not drawn)
**Result** 5.3

**Query** Request the reported RAM network inhibition associated with O=C(Nc1ccc2c(c1)OCCO2)c1ccc(NC(=O)C2CCCO2)cc1 (stereo not drawn)
**Result** 3.27

**Query** Request the reported RAM network inhibition associated with O=C(NCc1ccccn1)c1ccc2ccccc2n1
**Result** 5.32

**Query** Request the reported RAM network inhibition associated with COc1ccccc1N1CCN(C(CNC(=O)c2ccco2)c2cccnc2)CC1 (stereo not drawn)
**Result** -0.32

**Query** Request the reported RAM network inhibition associated with CCn1c(=O)c2cc(C(=O)N3CCN(C(=O)c4ccco4)CC3)sc2c2ccccc21
**Result** 7.64

**Query** Request the reported RAM network inhibition associated with O=C(NCc1nc2ccccc2[nH]1)c1ccc(S(=O)(=O)N2CCOCC2)cc1
**Result** 3.06

**Query** Request the reported RAM network inhibition associated with COc1ccc2c(c1)SC1=NCCS(=O)(=O)N12
**Result** 4.32

**Query** Request the reported RAM network inhibition associated with O=C(CCS(=O)(=O)c1cccs1)NC1CCCCCC1
**Result** 5.23

**Query** Request the reported RAM network inhibition associated with O=C(NCCC1=CCCCC1)C1CCCN(S(=O)(=O)c2cccc3cccnc23)C1 (stereo not drawn)
**Result** 5.84

**Query** Request the reported RAM network inhibition associated with Cc1ccc(/C=c2/sc3nnc(-c4ccccc4Cl)n3c2=O)o1
**Result** 3.46

**Query** Request the reported RAM network inhibition associated with O=C(CSc1ccc2nnc(-c3ccc(Cl)cc3)n2n1)N1CCCC1
**Result** 4.24

###

assay-info: viability gain of MRP-1-high H69AR cells under doxorubicin, pilot screen, MRP-1 activator project, CellTiter-Glo, duplicate (AID 807);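 note: compound pretreatment 18-22 h then 72 h combined with doxorubicin; 0% = doxorubicin alone and 100% = vehicle without doxorubicin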
experimental-conditions: H69AR viability with doxorubicin, CellTiter-Glo luminescence; at 10 µM; stronger effect = higher value
Active and inactive are the calls of the source.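 How the source made its calls: active means viability increase at or above a cutoff of the median across tested compounds plus 3 SD (cut at about 8.5% in these data, passing the limit was not always enough); inconclusive means some gains above the cutoff, reason not given; inactive means the rest.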
attribute-measured: viability increase

**Query** Request the reported viability increase associated with Cc1nc(-c2ccc(S(=O)(=O)N3CCCCCC3)cc2)cs1
**Result** -2.37% (inactive)

**Query** Request the reported viability increase associated with COc1cccc(/C=C2\N=C(SC)SC2=O)c1OC
**Result** -3.76% (inactive)

**Query** Request the reported viability increase associated with CCOc1ccc2nc(N3CCC(C(=O)N4CCN(c5ncccn5)CC4)CC3)sc2c1
**Result** -3.04% (inactive)

**Query** Request the reported viability increase associated with CCOC(=O)C1CCN(C(=O)c2cn(C)c(=O)c3cc(OC)c(OC)cc23)CC1
**Result** -4.21% (inactive)

**Query** Request the reported viability increase associated with NC(=O)CSc1nnc(Cn2c(=O)sc3ccccc32)n1-c1ccccc1
**Result** -0.83% (inactive)

**Query** Request the reported viability increase associated with O=C(CSc1nc2c(c(=O)n1-c1ccc(Cl)cc1)SCC2)Nc1ccc2c(c1)OCCO2
**Result** -2.7% (inactive)

**Query** Request the reported viability increase associated with COC(=O)CNC(=O)Cn1cnc2sc(C)c(S(=O)(=O)N3CCC(C)CC3)c2c1=O
**Result** -3.93% (inactive)

**Query** Request the reported viability increase associated with O=C(CN1CCN(c2ccccn2)CC1)Nc1cccc(C(F)(F)F)c1
**Result** -1.96% (inactive)

**Query** Request the reported viability increase associated with CCOC(=O)c1ccc(NC(=O)c2cccc(S(=O)(=O)N3CCOCC3)c2)cc1
**Result** -0.35% (inactive)

**Query** Request the reported viability increase associated with Cc1ccc2oc(=O)c3cnn(CC(=O)NC4CCN(Cc5ccccc5)CC4)c3c2c1
**Result** -3.78% (inactive)

**Query** Request the reported viability increase associated with Cn1c(CCNC(=O)C(C)(C)C)nc2ccccc21
**Result** 0.98% (inactive)

**Query** Request the reported viability increase associated with Cc1cccnc1NC(=O)c1c(O)c2ccccc2n(C)c1=O
**Result** -3.77% (inactive)

**Query** Request the reported viability increase associated with Cc1nc(SCC(=O)Nc2cccc(Cl)c2)n[nH]1
**Result** -1.48% (inactive)

**Query** Request the reported viability increase associated with OC(COc1ccc(Cl)c2ccccc12)CN1CCN(c2ccccn2)CC1 (stereo unspecified)
**Result** -3.19% (inactive)

**Query** Request the reported viability increase associated with COc1ccc(-c2cn3c(C)c(C(=O)N4CCN(c5ccc(OC)cc5)CC4)sc3n2)cc1
**Result** -1.79% (inactive)

**Query** Request the reported viability increase associated with CC(C)(C)NC(=O)c1ccc(NC(=O)C2COc3ccccc3O2)cc1 (stereo unspecified)
**Result** -0.73% (inactive)
